Provenance of the data: patent US10815210B2

Target: human SGLT1 (Homo sapiens, UniProt P13866)
Sequence (P13866 whole entry): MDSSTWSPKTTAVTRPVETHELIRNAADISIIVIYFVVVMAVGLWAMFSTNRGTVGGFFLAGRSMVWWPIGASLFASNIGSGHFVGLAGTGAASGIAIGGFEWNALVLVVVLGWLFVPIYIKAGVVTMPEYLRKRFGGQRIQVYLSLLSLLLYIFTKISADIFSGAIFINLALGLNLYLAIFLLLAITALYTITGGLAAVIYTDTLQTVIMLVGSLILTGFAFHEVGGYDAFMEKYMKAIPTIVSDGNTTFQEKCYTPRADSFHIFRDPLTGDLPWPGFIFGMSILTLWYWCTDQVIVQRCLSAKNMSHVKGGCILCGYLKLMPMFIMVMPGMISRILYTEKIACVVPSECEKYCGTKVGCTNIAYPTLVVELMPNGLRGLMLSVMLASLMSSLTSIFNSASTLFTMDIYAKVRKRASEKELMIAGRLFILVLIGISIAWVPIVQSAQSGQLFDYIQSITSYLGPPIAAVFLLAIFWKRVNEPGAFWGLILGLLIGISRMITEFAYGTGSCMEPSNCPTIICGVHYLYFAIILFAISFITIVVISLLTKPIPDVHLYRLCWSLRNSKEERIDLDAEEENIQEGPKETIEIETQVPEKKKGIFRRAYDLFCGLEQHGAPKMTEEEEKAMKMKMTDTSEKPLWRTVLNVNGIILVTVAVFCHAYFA
Experiment: SGLT1 assay: Na-dependent 14C-AMG uptake in CHO-K1 cells stably expressing human SGLT1
Conditions: 500 μM AMG, 2 hours at 37° C.
MEASUREMENT TYPE: pIC50
Scale: negative log10 of molar concentration, which is what pIC50 denotes.

Sample answers from the record:
1. [2H]C([2H])(c1ccc2c(c1)CC2)c1cc([C@@H]2O[C@H](CO)[C@@H](O)[C@H](O)[C@H]2O)ccc1OC (single isomer, unassigned) | 7.36
2. CCc1cc(F)c([C@@H]2O[C@H](CO)[C@@H](O)[C@H](O)[C@H]2O)cc1Cc1ccc2c(c1)CC2 | 8.00
3. [2H]C1([2H])Cc2cc(Cc3cc([C@@H]4O[C@H](CO)[C@@H](O)[C@H](O)[C@H]4O)ccc3CC)ccc21 | 7.74
4. COc1cc(O)c([C@@H]2O[C@H](CO)C(F)(F)[C@H](O)[C@H]2O)cc1Cc1ccc2c(c1)CC2 | 8.00
5. [2H]C([2H])(c1ccc2c(c1)CC2)c1cc([C@@H]2O[C@H](CO)[C@@H](O)[C@H](O)[C@H]2O)ccc1CC | 7.60

In: Quick one: pIC50 of "CCOc1cc(OC)c(Cc2ccc3c(c2)CC3)cc1[C@@H]1O[C@H](CO)[C@@H](O)[C@H](O)[C@H]1O" ?
Out: 7.43

In: Quick one: pIC50 of "OC[C@H]1O[C@@H](c2ccc(Cl)c(Cc3ccc4c(c3)CC4)c2)[C@H](O)[C@@H](O)[C@@H]1F" ?
Out: 7.44

In: Quick one: pIC50 of "[2H]C([2H])(c1ccc2c(c1)CC2)c1cc([C@@H]2O[C@H](CO)[C@@H](O)[C@H](O)[C@H]2O)c(OC)cc1CC" ?
Out: 7.08

In: Quick one: pIC50 of [2H]C1([2H])Cc2cc(Cc3cc([C@@H]4O[C@H](CO)[C@@H](O)[C@H](O)[C@H]4O)ccc3OC)ccc21 (single isomer, unassigned) ?
Out: 7.52
